# Measured on: T1, HLA-A*24:02 (human)
# T1 construct: whole, on cells; Empty class I molecule on T2-A24 cells
# Assay explanation: T2-A24 MHC class I stabilization, flow cytometry, anti-HLA-A24 17A10-FITC, peptide 100 ug/mL;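 also: peptide exposure stabilizes otherwise empty class I molecules on T2 cell surfaces, so surface class I level reflects how strongly the peptide binds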
Reported metric: MFI (solvent ratio)

> print(dat)
                     binder             obs.value
1  TLMHLSRCAI [As383_10_5L]    1 ratio to solvent
2     HFCTTPSSIL [As145_10]  1.2 ratio to solvent
3        HVECLLVLL [As87_9]  1.6 ratio to solvent
4   KYWDFYHSLFTV [As365_12]  2.4 ratio to solvent
5     GLSELVAFYV [As186_10]  1.1 ratio to solvent
6       LLNHGAARI [As311_9]  0.9 ratio to solvent
7       ILCDRGAKL [As125_9]  1.8 ratio to solvent
8       KYWDFYHSL [As365_9]  2.5 ratio to solvent
